System: SF-539 CNS
assay remarks: NCI tumour cell line growth inhibition, 48 h
A collection of compounds and their measured TGI

Using the record for COC(=O)C1=C(C)N(NC(N)=O)C(C)(O)C12CCOC2=O (stereo not drawn) , report its TGI. > 100 µM

***
Item under review: c1cc(NC2=NCCO2)c2c(c1)OCO2 . Reported TGI? > 100 µM

// same read-out, input: C=C(CN)CO[Si](C)(C)C(C)(C)C > 100 µM

Next compound up: Nc1nc(-c2cccs2)cs1 > 100 µM

Thanks! And COc1cc(/C=C2\C[C@H]3[C@@H]4CC=C5C[C@@H](OC(C)=O)CC[C@]5(C)[C@H]4CC[C@]3(C)[C@H]2OC(C)=O)ccc1OCCN1CCCCC1 ? 20.6 µM

Now give it for O=c1/c(=C/c2ccc([N+](=O)[O-])o2)sc2n1[C@@H](c1ccc3c(c1)OCO3)C=C(c1cc(F)c(Cl)cc1Cl)N=2 too. > 100 µM

Attribution: PubChem BioAssay (NCI)
